Test system: RXF 393 renal
Assay: NCI tumour cell line growth inhibition, 48 h
Recorded measurements of TGI, one per entry
// return numeric value only (unit: µM, not printed)

Here's what some known entries look like.
CCCCS(=O)(=O)Nc1ccc(Nc2c3ccccc3nc3ccccc23)c(OC)c1	11
C=CCNC1=C2C[C@@H](C)C[C@@H](OC)[C@H](OC(=O)CN)[C@H](C)/C=C(\C)[C@@H](OC(N)=O)[C@H](OC)/C=C\C=C(/C)C(=O)NC(=CC1=O)C2=O	17
COc1cc(O)c2c(=O)cc(C3(O)C=CC(=O)C=C3)oc2c1	17.7
O=C1C2c3[nH]c4ccccc4c3[C@@H]3CCCCC3C2C(=O)N1c1ccccc1 (some centres undefined)	32.7
CCOC(=O)c1cc2c(n1Cc1ccccc1)-c1oncc1CC2	30.9

What value of TGI has been reported for the following compound? COc1ccc(Cn2cc3c(c2-c2cc(OC)c(OC)c(OC)c2)CCc2cnoc2-3)cc1[N+](=O)[O-]
6.22

* * *

Test system: IGROV1 ovarian
Test: NCI tumour cell line growth inhibition, 48 h
measureName: GI50

COc1ccc(-c2cc(-c3cc(OC)c(OC)c(OC)c3)c(C#N)c(N3CCOCC3)n2)cc1O	19 µM
C=C1C(=O)O[C@H]2[C@H]1CC/C(COC(=O)c1ccc(C#N)cc1)=C\CC[C@@]1(C)O[C@@H]21	1.38 µM
CCCCCCCCCCCCOC1C(CNC(=O)C2OC3OC(C)(C)OC3C2NC(=O)CN2CCCCCC2)OC2OC(C)(C)OC21 (centres undefined)	5.03 µM

Attention now turns to another entry.
For the compound CCC[CH2][Sn]([CH2]CCC)([O]C(=O)C1CCC(=O)N1)[O]C(=O)C1CCC(=O)N1 (centres undefined) , what GI50 is on record?
1.1 µM

* * *

Quick reference for TGI among some compounds
System: MCF7 breast
Test: NCI tumour cell line growth inhibition, 48 h

COc1cc(N(CCC#N)CCC#N)ccc1/C(N=Nc1ccccc1)=N/NC(=O)c1cc(Br)ccc1O	55.5 µM

Requested read-out TGI, target or system MCF7 breast, entry N#Cc1ccc(C(c2ccc(C#N)cc2)n2cncn2)cc1
> 5000 µM

MCF7 breast / TGI / N#CCCN(CCN(C(=O)Nc1ccccc1)c1ccccc1)C(=O)Nc1ccccc1 : value?
> 100 µM

Please state recorded TGI (tested on MCF7 breast) of COc1cc2c(cc1O)[C@@H]1Cc3c(cc(OC)c(OC)c3Oc3cc4c(cc3OC)CCN(C)[C@@H]4Cc3ccc(O)cc3)[C@H](C2)N1C
> 100 µM

* * *

TGI values, listed per item
System: TK-10 renal
Assay: NCI tumour cell line growth inhibition, 48 h
Express the result in µM but write the number alone.

O=C(OCc1ccc2c(Cl)cc(Cl)c(O)c2n1)c1cc2ccccc2[nH]1	1.47
CN(CCCl)c1ccc(/C=C/C2=[N+](C)c3ccccc3C2(C)C)cc1	14.9

Look up TGI: N=C(N)SCc1cccc2c(=O)cc(-c3ccccc3)oc12
26.8

* * *

System: SF-539 CNS
Assay: NCI tumour cell line growth inhibition, 48 h; in the data active means GI50 below about 0.43 µM; inactive means the rest
Hello, when you answer, please use one of the following outcomes: label 1 for active, label 0 for inactive

COc1cc2nc3cc([N+](=O)[O-])ccc3c(NCCCNCC(C)(C)O)c2cc1OC	label 0

What was the test verdict on CCC1CCc2nc3sc(C(=O)Nc4ccccc4C)c(N)c3cc2C1 (stereo not given) ?
label 1

Hi team, can someone confirm the assay call for COc1ccc(-c2csc(-c3cc(Cl)cc(Cl)c3Cl)n2)cc1 ?
label 0

* * *

Test system: NCI/ADR-RES ovarian
Test: NCI tumour cell line growth inhibition, 48 h
measureName: TGI

COc1ccc(/C=C2\N=C(NN)N=C2Cl)cc1	> 100 µM
CC(C)C1OC(/C=C/c2ccccc2)OCC1(C)C (stereo not given)	> 100 µM

Turning to the following compound.
Which TGI reading was recorded for the compound CC(=O)OC1CC[C@]2(C)C3CC[C@@]4(C)C(CCC4[C@H](C)CCCC(C)C)[C@@H]3CCC2(Br)C1 (stereo not given in full) ?
> 50 µM

* * *

This section presents molecules with their documented TGI values.
System: TK-10 renal
Experiment: NCI tumour cell line growth inhibition, 48 h

Reported TGI for TK-10 renal, given Nc1c(C(=O)Nc2ccccc2F)sc2nc3c(cc12)C(=O)CCC3 ?
> 100 µM

# returns recorded TGI (system: TK-10 renal) for C=C1C(=O)O[C@H]2[C@H]1CC(=O)/C(C)=C/CC[C@@]1(C)O[C@@H]21
2.65 µM

Form entry - test system: TK-10 renal; read-out: TGI; molecule: CC1OC(OC2C(O)COC(OC3C(C)OC(OC4C(OC(=O)[C@]56CCC(C)(C)C[C@@H]5C5=CCC7[C@@]8(C)C[C@H](O)[C@H](OC9OC(CO)C(O)C(OC%10OC(CO)C(O)C(O)C%10O)C9O)[C@@](C)(CO)[C@@H]8CC[C@@]7(C)[C@]5(C)CC6)OCC(O)C4O)C(O)C3O)C2O)C(O)C(O)C1O (some centres undefined)
34.2 µM

Field: TGI (TK-10 renal). Entry: CN(C)c1ccc(/C=N\N2C(=O)c3ccccc3C2=O)cc1
> 100 µM

State its TGI on TK-10 renal: Cn1ncnc1CCc1ccccc1
> 100 µM

Query TGI on TK-10 renal for CCOC(=O)c1ccc(-n2c(SCC)nc3sc(C)c(C)c3c2=O)cc1
> 100 µM

Kindly state the measured TGI obtained for CC(=O)[O][Hg][c]1ccccc1 with TK-10 renal.
1.36 µM

Recorded TGI for COc1ccc2c(c1)CCC1=CC3(CCC12C)SCCS3 (centres undefined) with TK-10 renal, please?
> 10 µM

Lab request: please report TGI under test system TK-10 renal for Cc1c(C)c2c(c(N)c1C#N)C(=O)N(CCN1CCNCC1)C2=O
> 100 µM

Short answer please: TGI, TK-10 renal, entry c1ccc(C[n+]2cccc(-c3cc4ccccc4[nH]3)c2)cc1
> 100 µM

Reported TGI for TK-10 renal, given COC(=O)C(Cc1nc2ccc(Cl)cc2[nH]c1=O)/C(=N/NC(N)=O)C(=O)Nc1ccc(Cl)cc1 (centres undefined) ?
> 100 µM

Lab note: need TGI for CCN1C(=O)N(c2ccccc2)C2NN=c3s/c(=C4\C(=O)N(C(C)C)c5ccccc54)c(=O)n3C21 (centres undefined) on TK-10 renal, anyone have it?
49.5 µM

Query for TK-10 renal: what TGI does the record show for C[C@]12[C@@H]3CC[C@H]1[C@@H](OC(=O)Nc1cc([N+](=O)[O-])cc([N+](=O)[O-])c1)C(=O)N2CC3 ?
> 100 µM

Form field: TGI recorded for CCC(C(=O)[O-])C(=O)[O-].CCC(C(=O)[O-])C(=O)[O-].N.N.NCCCCCCN.[Pt+4].[Pt+4] with TK-10 renal (enter value)
15.1 µM

API: value(readout=TGI, system=TK-10 renal) for record O=C1CC(=O)N(CCc2ccccc2)S(=O)(=O)N1CCc1ccccc1
> 100 µM

* * *

System: OVCAR-3 ovarian
Assay: NCI tumour cell line growth inhibition, 48 h
measureName: TGI

For the record O=C(c1cccc(C(=O)c2ccc3c4c(cccc24)C(=O)N(c2ccccc2)C3=O)c1)c1ccc2c3c(cccc13)C(=O)N(c1ccccc1)C2=O , what value of TGI is listed for OVCAR-3 ovarian?
> 100 µM

Short answer please: TGI, OVCAR-3 ovarian, entry CNC1C(O)C(OC2C(N)CC(N)C(OC3OC(C(C)O)C(O)C(O)C3N)C2O)OCC1(C)O (stereo not given)
> 100 µM

Entry O=C1c2c(O)cc(O)cc2OC(c2ccc(O)cc2O)C1O (stereo not given) , system OVCAR-3 ovarian: what TGI was measured?
> 100 µM

Report TGI for O=C(NC(Nc1ccc(F)c(Cl)c1)(C(F)(F)F)C(F)(F)F)OCc1ccccc1 tested on OVCAR-3 ovarian.
34.8 µM

Query TGI on OVCAR-3 ovarian for Cc1ccc(C)c(NC(=O)CCc2nc(=S)[nH][nH]2)c1
> 100 µM

* * *

System: SK-MEL-28 melanoma
Test: NCI tumour cell line growth inhibition, 48 h
Recorded TGI, one value per entry.

COc1ccccc1S(=O)(=O)Nc1ccc2c(c1)CN(C)C(=O)N2	> 100 µM
O=C1/C(=C/c2ccco2)N=C(c2ccccc2)N1c1cc2cc(Sc3ccccc3)ccc2[nH]1	> 25 µM
Nc1nc(Cl)c2nnn(CC3CCC(CO)C3)c2n1 (stereo not given)	> 100 µM
CC(C)(C)C(=O)O[C@@H]1COC2C(O)COC21 (stereo not given in full)	> 100 µM

Give its TGI value. Item: O=C1CCc2c(sc3[nH]c(=S)n(Cc4ccccc4)c(=O)c23)C1
> 100 µM

Fill in: TGI of COc1cc(N(CCC#N)CCC#N)ccc1/C(N=Nc1ccccc1)=N/NC(=O)c1cc(Br)ccc1O is ___
87.6 µM

Value lookup for TGI; key = COC(=O)[C@@H]1C[C@@H]2c3ccccc3N(S(=O)(=O)c3ccccc3)[C@@H]2N1C(=O)OC
> 100 µM

Name the reported TGI value associated with the molecule CCOC(=O)C1=C(C)N(NC(N)=O)C2(O)CCCC(=O)C12C (stereo not given)
> 100 µM

May I ask what TGI has been recorded for CC(=O)NNc1nc(C)c(C(/C=C/c2ccc(Cl)cc2)=N/NC(=O)C[N+](C)(C)C)s1 ?
> 100 µM

Look at this molecule and give its reported TGI. CCCCCCCN1C(=O)C(O)(c2ccc(C3(O)C(=O)N(CCCCCCC)c4ccccc43)s2)c2ccccc21 (stereo not given)
3.98 µM
